In this section, each of the compounds is paired with its reported IC50.
- Tested target: Monocarboxylate transporter 1 (Rattus norvegicus)
- Sequence (P53987 whole entry): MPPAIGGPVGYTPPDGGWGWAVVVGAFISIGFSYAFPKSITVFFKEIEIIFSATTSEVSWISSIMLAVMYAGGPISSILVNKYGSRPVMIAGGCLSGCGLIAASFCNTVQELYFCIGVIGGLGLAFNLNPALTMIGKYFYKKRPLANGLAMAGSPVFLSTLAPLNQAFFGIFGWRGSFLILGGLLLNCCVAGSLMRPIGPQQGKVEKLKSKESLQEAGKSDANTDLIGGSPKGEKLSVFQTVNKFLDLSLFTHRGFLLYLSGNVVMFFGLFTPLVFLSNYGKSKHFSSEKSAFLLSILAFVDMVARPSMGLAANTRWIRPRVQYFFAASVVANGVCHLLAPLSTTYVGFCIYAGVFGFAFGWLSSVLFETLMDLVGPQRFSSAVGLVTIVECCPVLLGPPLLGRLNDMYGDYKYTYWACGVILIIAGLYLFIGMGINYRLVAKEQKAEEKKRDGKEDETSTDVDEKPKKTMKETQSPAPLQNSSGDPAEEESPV
- Experiment: TP_TRANSPORTER: inhibition of lactate uptake in Xenopus laevis oocytes
Give the quantity in µM, number only.

Compound | Value observed
CCc1oc2ccccc2c1C(=O)c1cc(Br)c(O)c(Br)c1 | 22
O=C(CCc1ccc(O)cc1)c1c(O)cc(O)cc1O | 28
O=c1c(O)c(-c2ccc(O)c(O)c2)oc2cc(O)cc(O)c12 | 14

Now look at this entry.
query: State the recorded IC50 for this entry: N#C/C(=C\c1ccc(O)cc1)C(=O)O [alpha-CYANO-4-HYDROXYCINNAMIC ACID]
result: 425
